- System: Staphylococcus aureus
- measurement-notes: Compound was evaluated for in vitro antibacterial activity against Staphylococcus aureus 285 strain by agar dilution method
- Assay type: functional

compound: CC(C)[C@H](O)C1=C(C(=O)[O-])N2C(=O)[C@H]([C@@H](C)O)C2[C@H]1C.[Na+] (stereo partly specified)
experimental-target: Staphylococcus aureus
MIC [µg/mL]: 0.781

compound: CO[C@H]1CCC[C@H]2C1=C(C(=O)[O-])N1C(=O)[C@H]([C@@H](C)O)[C@@H]21.[Na+] [SANFETRINEM SODIUM]
experimental-target: Staphylococcus aureus
MIC [µg/mL]: 0.049

compound: CC[C@@H](O)C1=C(C(=O)[O-])N2C(=O)[C@H]([C@@H](C)O)C2[C@H]1C.[Na+] (stereo partly specified)
experimental-target: Staphylococcus aureus
MIC [µg/mL]: 0.098

compound: C[C@H]1C([C@H](O)C2CC2)=C(C(=O)[O-])N2C(=O)[C@H]([C@@H](C)O)C12.[Na+] (stereo partly specified)
experimental-target: Staphylococcus aureus
MIC [µg/mL]: 0.049

compound: C[C@H]1C([C@H](O)C(C)(C)C)=C(C(=O)[O-])N2C(=O)[C@H]([C@@H](C)O)C12.[Na+] (stereo partly specified)
experimental-target: Staphylococcus aureus
MIC [µg/mL]: 0.391

compound: CCC(C)[C@@H](O)C1=C(C(=O)[O-])N2C(=O)[C@H]([C@@H](C)O)C2[C@H]1C.[Na+] (stereo partly specified)
experimental-target: Staphylococcus aureus
MIC [µg/mL]: 0.098

compound: C[C@@H](O)[C@H]1C(=O)N2C(C(=O)O)=C(S[C@@H]3CN[C@H](C(=O)N(C)C)C3)[C@H](C)[C@H]12
experimental-target: Staphylococcus aureus
MIC [µg/mL]: 0.195

compound: C[C@H]1C([C@@H](O)C2CC2)=C(C(=O)[O-])N2C(=O)[C@H]([C@@H](C)O)C12.[Na+] (stereo partly specified)
experimental-target: Staphylococcus aureus
MIC [µg/mL]: 0.781

compound: CC(C)[C@@H](O)C1=C(C(=O)[O-])N2C(=O)[C@H]([C@@H](C)O)C2[C@H]1C.[Na+] (stereo partly specified)
experimental-target: Staphylococcus aureus
MIC [µg/mL]: 0.098

compound: CC[C@H](O)C1=C(C(=O)[O-])N2C(=O)[C@H]([C@@H](C)O)C2[C@H]1C.[Na+] (stereo partly specified)
experimental-target: Staphylococcus aureus
MIC [µg/mL]: 0.391

compound: C[C@H]1C([C@H](O)C2CCCC2)=C(C(=O)[O-])N2C(=O)[C@H]([C@@H](C)O)C12.[Na+] (stereo partly specified)
experimental-target: Staphylococcus aureus
MIC [µg/mL]: 0.098

Origin of values: ChEMBL document CHEMBL1133391
